System: RD cells
Procedure details: cytotoxicity test on RD cells
Type: cell-based, Human
Study conditions: 3 days
Quantity name: CC50 (µM)
Your answer should be a plain number; it is taken to be in µM.

Item under review: O=c1nc(NO)ccn1[C@@H]1O[C@H](CO)[C@@H](O)[C@H]1O . Reported CC50?
80.5

* * *

Test system: CV-B3 Nancy
Procedure details: CPE protection, CV-B3 Nancy strain
Assay type: cell-based
Study conditions: CV-B3 Nancy, Vero cells
In this section we review reported pEC50 values for a set of compounds.
Kindly note that pEC50 refers to -log10 of the concentration in mol/L and answer with the value alone.

# Molecule smiles, Measured target, pEC50
rows = [
    ("CC(C)C(=O)OC[C@H]1O[C@@H](n2cc/c(=N\\O)[nH]c2=O)[C@H](O)[C@@H]1O", "CV-B3 Nancy", 4.06),
]

Here is the next item to consider.
Item under review: O=c1nc(NO)ccn1[C@@H]1O[C@H](CO)[C@@H](O)[C@H]1O . Reported pEC50?
5.44

* * *

Tested on: EV-A71 H strain
Procedure details: protection against cytopathic effect (CPE) caused by EV-A71, Cell-Titer Glo
Type: cell-based
Study conditions: EV-A71 H strain, Vero cells, 3 days
In this section we review reported pEC50 values for a set of compounds.
Kindly note that pEC50 refers to -log10 of the concentration in mol/L and answer with the value alone.

# Molecule smiles, Measured target, pEC50
measured = [
    ("CC(C)C(=O)OC[C@H]1O[C@@H](n2cc/c(=N\\O)[nH]c2=O)[C@H](O)[C@@H]1O", "EV-A71 H strain", 4.05),
]

Item under review: O=c1nc(NO)ccn1[C@@H]1O[C@H](CO)[C@@H](O)[C@H]1O . Reported pEC50?
5.15

* * *

Tested on: EV-A71 AH08/06
Procedure details: CPE protection, EV-A71 AH08/06 strain
Type: cell-based
Study conditions: EV-A71 AH08/06, RD cells
Quantity name: pEC50
Kindly note that pEC50 refers to -log10 of the concentration in mol/L and answer with the value alone.

# Molecule, pEC50
data = [
    ("CC(C)C(=O)OC[C@H]1O[C@@H](n2cc/c(=N\\O)[nH]c2=O)[C@H](O)[C@@H]1O [EIDD-2801]", 4.52),
]

Item under review: O=c1nc(NO)ccn1[C@@H]1O[C@H](CO)[C@@H](O)[C@H]1O [EIDD-1931] . Reported pEC50?
5.55

* * *

System: Huh7 cells
Procedure details: cytotoxicity test on Huh7 cells
Type: cell-based, Human
Study conditions: 3 days
Quantity name: CC50 (µM)
Your answer should be a plain number; it is taken to be in µM.

Missing value: CC50, Huh7 cells, entry O=c1nc(NO)ccn1[C@@H]1O[C@H](CO)[C@@H](O)[C@H]1O [EIDD-1931] . Fill in?
34.1
